# method.summary: Tryptophan fluorescent binding assay, 3POPC/1POPG vesicles
# run.conditions: 50 μM peptide, PBS pH 7.4, lipid per peptide
# Experimental: In brief, 50 μM peptides were fixed and incubated with titrated POPC vesicles (black) or 3POPC/1POPG vesicles (grey) at concentrations of 0, 12.5, 25, 50, 100, 250, 500, 1000, 2500, and 5000 μM in phosphate buffered saline (1×, pH 7.4). The lipid concentration that causes 50% peptide binding was determined using a tryptophan fluorescent binding assay and the values are shown as lipid per peptide. […]
Output y for records whose Lipid Concentration-induced 50% Peptide Binding, 3POPC/1POPG Vesicle is lower than 0.6 L/P, n for records at or above 0.6 L/P.

Confirm or reject: Lipid Concentration-induced 50% Peptide Binding, 3POPC/1POPG Vesicle of CC(C)C[C@H](NC(=O)CN)C(=O)N[C@@H](CC(C)C)C(=O)N[C@@H](Cc1c[nH]cn1)C(=O)N[C@@H](CC(C)C)C(=O)N[C@@H](CC(C)C)C(=O)N[C@@H](CCCCN)C(=O)N[C@@H](CC(C)C)C(=O)N[C@@H](CC(C)C)C(=O)N[C@@H](CC(C)C)C(=O)N[C@@H](CCCCN)C(=O)N[C@@H](C)C(=O)N[C@@H](C)C(=O)NCC(=O)N[C@@H](Cc1c[nH]c2ccccc12)C(N)=O [HKK] lies strictly below 0.6 L/P
y

Confirm or reject: Lipid Concentration-induced 50% Peptide Binding, 3POPC/1POPG Vesicle of CC(C)C[C@H](NC(=O)CN)C(=O)N[C@@H](CC(C)C)C(=O)N[C@@H](CCCCN)C(=O)N[C@@H](CC(C)C)C(=O)N[C@@H](CC(C)C)C(=O)N[C@@H](Cc1c[nH]cn1)C(=O)N[C@@H](CC(C)C)C(=O)N[C@@H](CC(C)C)C(=O)N[C@@H](CC(C)C)C(=O)N[C@@H](CCC(=O)O)C(=O)N[C@@H](C)C(=O)N[C@@H](C)C(=O)NCC(=O)N[C@@H](Cc1c[nH]c2ccccc12)C(N)=O [KHE] lies strictly below 0.6 L/P
n

Confirm or reject: Lipid Concentration-induced 50% Peptide Binding, 3POPC/1POPG Vesicle of CC(C)C[C@H](NC(=O)CN)C(=O)N[C@@H](CC(C)C)C(=O)N[C@@H](CCC(=O)O)C(=O)N[C@@H](CC(C)C)C(=O)N[C@@H](CC(C)C)C(=O)N[C@@H](Cc1c[nH]cn1)C(=O)N[C@@H](CC(C)C)C(=O)N[C@@H](CC(C)C)C(=O)N[C@@H](CC(C)C)C(=O)N[C@@H](Cc1c[nH]cn1)C(=O)N[C@@H](C)C(=O)N[C@@H](C)C(=O)NCC(=O)N[C@@H](Cc1c[nH]c2ccccc12)C(N)=O [EHH] lies strictly below 0.6 L/P
n

Confirm or reject: Lipid Concentration-induced 50% Peptide Binding, 3POPC/1POPG Vesicle of CC(C)C[C@H](NC(=O)CN)C(=O)N[C@@H](CC(C)C)C(=O)N[C@@H](Cc1c[nH]cn1)C(=O)N[C@@H](CC(C)C)C(=O)N[C@@H](CC(C)C)C(=O)N[C@@H](Cc1c[nH]cn1)C(=O)N[C@@H](CC(C)C)C(=O)N[C@@H](CC(C)C)C(=O)N[C@@H](CC(C)C)C(=O)N[C@@H](Cc1c[nH]cn1)C(=O)N[C@@H](C)C(=O)N[C@@H](C)C(=O)NCC(=O)N[C@@H](Cc1c[nH]c2ccccc12)C(N)=O [HHH] lies strictly below 0.6 L/P
n

Confirm or reject: Lipid Concentration-induced 50% Peptide Binding, 3POPC/1POPG Vesicle of CC(C)C[C@H](NC(=O)CN)C(=O)N[C@@H](CC(C)C)C(=O)N[C@@H](CCC(=O)O)C(=O)N[C@@H](CC(C)C)C(=O)N[C@@H](CC(C)C)C(=O)N[C@@H](CCCCN)C(=O)N[C@@H](CC(C)C)C(=O)N[C@@H](CC(C)C)C(=O)N[C@@H](CC(C)C)C(=O)N[C@@H](CCCCN)C(=O)N[C@@H](C)C(=O)N[C@@H](C)C(=O)NCC(=O)N[C@@H](Cc1c[nH]c2ccccc12)C(N)=O [EKK] lies strictly below 0.6 L/P
n

Confirm or reject: Lipid Concentration-induced 50% Peptide Binding, 3POPC/1POPG Vesicle of CC(C)C[C@H](NC(=O)CN)C(=O)N[C@@H](CC(C)C)C(=O)N[C@@H](Cc1c[nH]cn1)C(=O)N[C@@H](CC(C)C)C(=O)N[C@@H](CC(C)C)C(=O)N[C@@H](Cc1c[nH]cn1)C(=O)N[C@@H](CC(C)C)C(=O)N[C@@H](CC(C)C)C(=O)N[C@@H](CC(C)C)C(=O)N[C@@H](CCCCN)C(=O)N[C@@H](C)C(=O)N[C@@H](C)C(=O)NCC(=O)N[C@@H](Cc1c[nH]c2ccccc12)C(N)=O [HHK] lies strictly below 0.6 L/P
y
